tested on: Colletotrichum graminicola; test: Fungicidal activity against tebuconazole-adapted wild type Colletotrichum graminicola CgM2 assessed as inhibition of radial growth rate at 23 degC in darkness; assay type: functional
readout type: ED90
Give the figure together with its unit, number first.

>>> recorded_measurement("C[C@@H]1[C@H](O)[C@@H](C)/C=C/C=C/C=C/C=C/C=C/C=C/C=C/[C@H](O[C@@H]2O[C@H](C)[C@@H](O)[C@H](N)[C@@H]2O)C[C@@H]2O[C@](O)(C[C@@H](O)C[C@@H](O)[C@H](O)CC[C@@H](O)C[C@@H](O)CC(=O)O[C@H]1C)C[C@H](O)[C@H]2C(=O)O")
"0.873 µg/mL"
>>> recorded_measurement("CCC(C)(C)c1ccc(CC(C)CN2C[C@@H](C)O[C@@H](C)C2)cc1 (some centres not stated)")
"0.36 µg/mL"

Data request: Respond only with ED90 recorded for `COC1=CC(=O)C[C@@H](C)[C@]12Oc1c(Cl)c(OC)cc(OC)c1C2=O`
Data returned: 5.839 µg/mL

Data request: Respond only with ED90 recorded for `CO/C=C(/C(=O)OC)c1ccccc1COc1cccc(C(F)(F)F)n1`
Data returned: 1.041 µg/mL

Data request: Respond only with ED90 recorded for Cc1cccc(N(C)C(=S)Oc2ccc3ccccc3c2)c1 [TOLNAFTATE]
Data returned: 98.71 µg/mL

Data request: Respond only with ED90 recorded for `Cc1cc(C2CCCCC2)n(O)c(=O)c1.NCCO`
Data returned: 54.616 µg/mL

Data request: Respond only with ED90 recorded for Clc1ccc(COC(Cn2ccnc2)c2ccc(Cl)cc2Cl)c(Cl)c1 (configuration not stated)
Data returned: 4.386 µg/mL
